TGI listing for selected compounds.
- Tested on: SF-268 CNS
- measurement_protocol: NCI tumour cell line growth inhibition, 48 h

Consider the reported TGI for these compounds:
Problem: Assign TGI to the following record: COc1cccc2c(Nc3ccc(S(=O)(=O)Nc4ncccn4)cc3)c3ccc([N+](=O)[O-])cc3nc12
Result: > 100 µM

Problem: Assign TGI to the following record: CC(C)C(=O)N1C(=O)O[C@@H](c2ccccc2)[C@H]1C
Result: > 100 µM

Problem: Assign TGI to the following record: O=C1CC(c2ccccc2Cl)Oc2ccccc21 (stereo unspecified)
Result: > 100 µM

More entries:
Problem: Assign TGI to the following record: COc1ccc(/C=N/C2=C(C#N)C(c3ccccc3)c3c(ccc4ccccc34)O2)cc1 (stereo unspecified)
Result: 65.3 µM

Problem: Assign TGI to the following record: Cn1c(=O)c2c(nc3sc4nc5ccccc5nc4n32)n(C)c1=O
Result: > 100 µM

Problem: Assign TGI to the following record: CN1CCN(CC(=O)Nc2cccc3ccccc23)CC1
Result: > 100 µM

====

TGI listing for selected compounds.
- System: DU-145 prostate
- measurement_protocol: NCI tumour cell line growth inhibition, 48 h
Respond numerically; units are µM and should not be typed.

Problem: Assign TGI to the following record: O=Cc1cc2c(s1)C(=O)c1sccc1C2=O
Result: 0.319

# evaluate next
Problem: Assign TGI to the following record: COc1ccc2c(c1)C(=O)c1c-2n(CCCNCCO)c(=O)c2ccccc12
Result: 0.331

====

- Test system: ACHN renal
- measurement_protocol: NCI tumour cell line growth inhibition, 48 h; in the data active means GI50 below about 0.43 µM; inactive means the rest
Log the outcome using a class from active, inactive

Problem: Hi, sorry to bother you, what did the test record for O=C1OCC2=C1C(c1cccc(Cl)c1)c1cc3c(cc1N2CCO)OCO3 (centres undefined) ?
Result: inactive

Problem: Hi, sorry to bother you, what did the test record for CCN(CC)c1ccc(/C=C2\SC(=O)C(Nc3nnc(-c4cccnc4SCc4ccccc4)o3)C2=O)cc1 (centres undefined) ?
Result: inactive

More entries:
Problem: Hi, sorry to bother you, what did the test record for CC(=O)OC[C@]1(C)C=C2C(=O)[C@](C)(O)C3(CC3)C(C)=C2[C@H]1OC(=O)N(C)CCN(C)C(=O)OC(C)(C)C ?
Result: inactive

Problem: Hi, sorry to bother you, what did the test record for O=C(Nc1cccc(-c2cccc(F)c2)c1)C1CCN(Cc2cccc3cccnc23)CC1 ?
Result: inactive

Problem: Hi, sorry to bother you, what did the test record for COc1cc(O)c2c(=O)c(OC)c(-c3ccc(OC)c(OC)c3)oc2c1.[Co] ?
Result: inactive

Problem: Hi, sorry to bother you, what did the test record for Cn1cc(C2=C(c3cn(CCSC(=N)N)c4ccccc34)C(=O)NC2=O)c2ccccc21 ?
Result: inactive

====

- System: OVCAR-4 ovarian
- measurement_protocol: NCI tumour cell line growth inhibition, 48 h
readout_label: TGI

Consider the reported TGI for these compounds:
Problem: Assign TGI to the following record: CCN(CC)c1ccc2cc(-c3nc(-c4ccccc4)n[nH]3)c(=O)oc2c1
Result: 53.7 µM

Problem: Assign TGI to the following record: COc1ccc(/C(=N\N=C(N)N)C(c2ccc(OC)cc2)C2OC(=O)c3ccccc32)cc1 (stereo not given)
Result: > 100 µM

Problem: Assign TGI to the following record: CN=C(NN)NS(=O)(=O)c1cc(C)c(Cl)cc1S
Result: > 100 µM

Problem: Assign TGI to the following record: CCc1n[nH]c(=O)n1NC(=O)CCCC(=O)O
Result: > 100 µM

Problem: Assign TGI to the following record: COC(=O)c1cc2c3c(c1)Oc1cc(C(=O)OC)cc4c1C3c1c(cc(C(=O)OC)cc1O4)O2
Result: > 100 µM

Problem: Assign TGI to the following record: CN1CCN(CC(=O)Nc2cccc3ccccc23)CC1
Result: > 100 µM

Problem: Assign TGI to the following record: CC1(CO)OC(n2cnc3cncnc32)CC1O (stereo not given)
Result: > 100 µM

Problem: Assign TGI to the following record: COc1cccc(/C=N/Nc2ncnc3c2cnn3-c2cccc(OC)c2)c1
Result: > 25 µM

Problem: Assign TGI to the following record: CC(C)[Si]1(C(C)C)OCC2OC(N3C(=O)NC(=O)C[C@@H]3C(O)c3ccccc3)CC2O[Si](C(C)C)(C(C)C)O1 (stereo not given in full)
Result: 14.8 µM

# evaluate next
Problem: Assign TGI to the following record: O=C1OC2C(O)COC2(O)C1(O)Cc1c[nH]c2ccccc12 (stereo not given)
Result: > 100 µM
